Test system: SKMEL-2
Assay: BrdU proliferation assay, SKMEL-2
Conditions: Homo sapiens, SK-MEL-2, 96 h, read-out: MLN8237 IC50, SKMEL-2, TAK-733 10 nM
measured.property: IC50 (nM)
Field format: number, assumed nM, no unit text.

Record COc1cc(Nc2ncc3c(n2)-c2ccc(Cl)cc2C(c2c(F)cccc2OC)=NC3)ccc1C(=O)[O-].O.[Na+] [MLN8237, monohydrate] : what is its IC50 with SKMEL-2?
16

###

Test system: PC-3
Experiment: BrdU proliferation assay, PC-3
Conditions: Homo sapiens, PC-3, 96 h, read-out: MLN8237 IC50, PC-3, TAK-733 2000 nM
measured.property: pIC50
Just the number, please; pIC50 means minus log10 of the concentration in mol/L.

Record COc1cc(Nc2ncc3c(n2)-c2ccc(Cl)cc2C(c2c(F)cccc2OC)=NC3)ccc1C(=O)[O-].O.[Na+] [MLN8237, monohydrate] : what is its pIC50 with PC-3?
7.13

// data source = patent US9629850B2
